molecular target: transmembrane allosteric modulatory sites of mGluR5 receptors in cortical membranes (Rattus norvegicus); experiment: [3H]-MMPEP binding assay in rat cortical membranes; settings: 3H-MMPEP radioligand, read-out: mGluR5_M_MPEP_r_CTX_IC50
Sequence (P31424 21-1203): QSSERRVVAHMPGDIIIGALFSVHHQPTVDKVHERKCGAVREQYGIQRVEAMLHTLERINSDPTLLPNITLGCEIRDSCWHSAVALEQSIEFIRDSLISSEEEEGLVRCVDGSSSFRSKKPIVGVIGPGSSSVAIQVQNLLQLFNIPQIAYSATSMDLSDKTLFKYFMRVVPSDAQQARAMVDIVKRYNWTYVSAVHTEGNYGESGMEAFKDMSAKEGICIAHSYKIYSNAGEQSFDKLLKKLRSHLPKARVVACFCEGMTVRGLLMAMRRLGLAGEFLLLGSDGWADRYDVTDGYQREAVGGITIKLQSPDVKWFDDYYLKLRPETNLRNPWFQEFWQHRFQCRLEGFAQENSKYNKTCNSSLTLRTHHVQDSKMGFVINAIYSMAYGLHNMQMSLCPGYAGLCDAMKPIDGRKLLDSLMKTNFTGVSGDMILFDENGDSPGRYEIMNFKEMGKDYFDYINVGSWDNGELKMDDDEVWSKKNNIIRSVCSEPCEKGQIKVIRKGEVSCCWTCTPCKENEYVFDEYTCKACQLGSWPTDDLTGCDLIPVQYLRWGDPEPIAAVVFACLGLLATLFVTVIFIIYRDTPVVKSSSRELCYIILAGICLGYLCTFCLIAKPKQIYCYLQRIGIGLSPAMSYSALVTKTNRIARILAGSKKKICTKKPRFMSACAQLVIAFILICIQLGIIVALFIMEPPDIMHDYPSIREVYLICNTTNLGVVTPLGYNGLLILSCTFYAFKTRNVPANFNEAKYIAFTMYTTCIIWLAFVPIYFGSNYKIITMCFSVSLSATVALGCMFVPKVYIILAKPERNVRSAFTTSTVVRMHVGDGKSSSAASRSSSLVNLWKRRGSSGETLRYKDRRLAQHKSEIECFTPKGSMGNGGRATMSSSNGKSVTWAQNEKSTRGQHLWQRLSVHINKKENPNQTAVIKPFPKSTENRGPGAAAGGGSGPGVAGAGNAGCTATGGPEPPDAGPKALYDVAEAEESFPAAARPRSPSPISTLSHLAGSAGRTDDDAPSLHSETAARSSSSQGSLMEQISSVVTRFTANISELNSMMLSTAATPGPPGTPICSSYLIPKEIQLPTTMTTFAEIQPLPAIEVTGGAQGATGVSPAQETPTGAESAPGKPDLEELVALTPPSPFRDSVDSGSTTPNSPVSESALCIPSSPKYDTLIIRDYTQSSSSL
Measured quantity: IC50 (nM)

{"Compound": "CC1c2ccc(Cl)n2CCN1C(=O)c1cc2ncc(Br)cn2n1 (centres unmarked)", "IC50, nM": 44.5}

[a] CC1c2ccc(Br)n2CCN1C(=O)c1cc2ncc(Br)cn2n1 (centres unmarked)
[b] CN1c2ccccc2CCN1C(=O)c1cc2ncc(Cl)cn2n1
Input: Between a and b , whose measured IC50 reads higher? Your choice should be expressed through its label.
Output: b
